Biological target: DLG1_3, Q12959
Sequence (Q12959 457-571): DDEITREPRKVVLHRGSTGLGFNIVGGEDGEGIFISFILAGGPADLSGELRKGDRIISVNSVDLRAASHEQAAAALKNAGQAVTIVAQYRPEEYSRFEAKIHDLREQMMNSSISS
Assay: holdup assay
Set-up: key: below the threshold = too weak to quantify, mostly under pKd 3.1 to 4
Conditions: plain residues with an end cap or a label only (N-terminal biotin on a linker: ttds)
pKd listing for selected binders.
Test readout: pKd

| Binder | Test readout | Experimental result |
| --- | --- | --- |
| SRSRRRETAL [HPV33-E6, P06427] | pKd | 4.56 |
| PSRDRKETSI [RALBP1, Q15311] | pKd | 4.28 |
| PPRQRSETQV [HPV82-E6, Q9IR59] | pKd | 3.99 |
| GRLLGLETNV [ARHGEF26, Q96DR7] | pKd | 4.92 |
